- Species: Rattus norvegicus
- ASSAY TEXT: DrugMatrix - Regimen: Daily Repeat
- Assay type: toxicity, organism-based, Sprague-Dawley
- Parameters: regimen Daily Repeat, gender Male, age 6-8 weeks
- MEASUREMENT SETUP: in vivo, po, 0 mg/kg, 72 h, tissue Plasma, route oral GAVAGE, dose level Control, time 3 day, vehicle .5 % CMC

| COMPOUND | BLOOD UREA NITROGEN |
| --- | --- |
| CC(C)Cc1ccc([C@H](C)C(=O)O)cc1 | 15.17 mg/dL |
| COc1ccc(Cl)cc1C(=O)NCCc1ccc(S(=O)(=O)NC(=O)NC2CCCCC2)cc1 [GLYBURIDE] | 16.83 mg/dL |
| Cl.NC[C@H]1CC[C@H](C(=O)Oc2ccc(CCC(=O)O)cc2)CC1 [CETRAXATE HYDROCHLORIDE] | 15.5 mg/dL |

====

- Organism: Rattus norvegicus
- ASSAY TEXT: DrugMatrix - Regimen: Daily Repeat
- Format: toxicity, organism-based, Sprague-Dawley
- Design: regimen Daily Repeat, gender Male, age 6-8 weeks
- MEASUREMENT SETUP: in vivo, po, 0 mg/kg, 120 h, tissue Blood, route oral GAVAGE, dose level Control, time 5 day, vehicle .5 % CMC
Recorded MEAN CORPUSCULAR HEMOGLOBIN, one value per entry.
READOUT NAME: MEAN CORPUSCULAR HEMOGLOBIN (pg)

| COMPOUND | READOUT NAME | OBSERVED RESULT |
| --- | --- | --- |
| CC(C)NCC(O)COc1ccc(CC(N)=O)cc1 (configuration not stated) [ATENOLOL] | MEAN CORPUSCULAR HEMOGLOBIN | 24.37 |
| NC(=O)CN1CCCC1=O | MEAN CORPUSCULAR HEMOGLOBIN | 25.68 |
| CN(C)CCOC(c1ccccc1)c1ccccc1.Cn1c(=O)c2[nH]c(Cl)nc2n(C)c1=O [DIMENHYDRINATE] | MEAN CORPUSCULAR HEMOGLOBIN | 25.23 |
| NC(=O)NC(=O)Cc1ccccc1 [PHENACEMIDE] | MEAN CORPUSCULAR HEMOGLOBIN | 22.9 |
| CCOc1cc(N)c(Cl)cc1C(=O)NCC1CN(Cc2ccc(F)cc2)CCO1 (configuration not stated) [MOSAPRIDE] | MEAN CORPUSCULAR HEMOGLOBIN | 23.95 |
| NCC(CC(=O)O)c1ccc(Cl)cc1 (configuration not stated) [BACLOFEN] | MEAN CORPUSCULAR HEMOGLOBIN | 23.95 |
| CCN1CCCC1CNC(=O)c1cc(S(N)(=O)=O)ccc1OC (configuration not stated) [SULPIRIDE] | MEAN CORPUSCULAR HEMOGLOBIN | 25.02 |

====

PLATELET COUNT reference
- Species on record: Rattus norvegicus
- ASSAY TEXT: DrugMatrix - Regimen: Daily Repeat
- Type: toxicity, organism-based, Sprague-Dawley
- Parameters: regimen Daily Repeat, gender Male, age 6-8 weeks
- MEASUREMENT SETUP: in vivo, po, 0 mg/kg, 120 h, tissue Blood, route oral GAVAGE, dose level Control, time 5 day, vehicle .5 % CMC
READOUT NAME: PLATELET COUNT (x10E3/uL)

| COMPOUND | OBSERVED RESULT |
| --- | --- |
| CCN1CCCC1CNC(=O)c1cc(S(N)(=O)=O)ccc1OC (stereo not drawn) [SULPIRIDE] | 1274 |
| O=C1c2ccccc2C(=O)C1c1ccccc1 [PHENINDIONE] | 1267 |
| CC(C)(C#N)c1cc(Cn2cncn2)cc(C(C)(C)C#N)c1 [ANASTROZOLE] | 1248.17 |
| CCN(CC)CCNC(=O)c1cc(Cl)c(N)cc1OC [METOCLOPRAMIDE] | 1155.8 |
| CN(C)CCOC(c1ccccc1)c1ccccc1.Cn1c(=O)c2[nH]c(Cl)nc2n(C)c1=O [DIMENHYDRINATE] | 1229 |
| COc1cc(/C=C/C(=O)O)ccc1O [FERULATE] | 1251.67 |
| Nc1ccc(C(=O)O)c(O)c1 [AMINOSALICYLIC ACID] | 1042.83 |
| NC(=O)CN1CCCC1=O | 1097.5 |

meta.source: ChEMBL document CHEMBL3885881
